List of Kd values.
Target: HLA-A*03:01
Experiment: IEDB peptide-MHC binding, purified MHC/competitive/radioactivity; filed as Kd, often an IC50 or EC50 that approximates it; bounds were set here for any values at or beyond the usual limits of such assays
Details: source organism: SARS coronavirus Tor2
Supply the numeric figure in nM, leaving out any unit text.

{"columns": ["sequence code", "system under test", "assay result"],
 "data": [
  ["ALCTLLHLHR", "HLA-A*03:01", 301],
  ["ALSEAREHLK", "HLA-A*03:01", 80.6],
  ["SVVQKPVDVK", "HLA-A*03:01", 61.6],
  ["RIDGAHLTK", "HLA-A*03:01", 26.7],
  ["ASCDAIMTR", "HLA-A*03:01", 19400],
  ["FTTSLSLHK", "HLA-A*03:01", 1350],
  ["SLYMAISPK", "HLA-A*03:01", 13.6],
  ["AAYYFMKFR", "HLA-A*03:01", 124],
  ["EQLQLLMPLK", "HLA-A*03:01", 1200],
  ["TLLPLTQYNR", "HLA-A*03:01", 7220]
]}

Q: Tell us which Kd value is on record for `KLLQTLVLK`
Ans: 863

Q: Supply Kd value. Item: `VVYRAFDIY`
Ans: 163

Q: Identify measured Kd corresponding to `SFYVYANGGR`
Ans: 1650

Q: Please supply the value of reported Kd for the item `KLSAGVEFLK`
Ans: 14.9

Q: Please give measured Kd of the following entry: `TSSTCMMCYK`
Ans: 22.9

Q: Read the entry `KLSYGIATVR` and write its reported Kd.
Ans: 879

Q: Give reported Kd value for `RQFHQKLLK`
Ans: 12.6

FYI, the data here is from the Immune Epitope Database (IEDB).
